The measured values listed here are drawn from PubChem BioAssay AID1159580.

Run description: chemical genetic growth profiling, strain panel (AID 1159580);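 further: tested at 20 µM; growth read once vehicle control cultures reached saturation at 30 °C; 1 = growth at the plate median or of vehicle wells; lower values mean less growth of the strain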
Condition label: S. cerevisiae deletion strains, growth OD, locus YCL061C, strain MRC1, stronger effect = lower value
The campaign covered roughly 5,500 compounds. About 2,000 (36%) were called active. Inconclusive results (about 18%) are left out. The list shows a part of the results.
Reported values of normalized growth for individual entries
Reported endpoint: normalized growth

Compound	Reported endpoint	Data value
FC(F)(F)c1cnc(N2CCN(C(=S)Nc3ccccc3)CC2)c(Cl)c1	normalized growth	1
COC(=O)Nc1nc2ccc(Sc3ccccc3)cc2[nH]1	normalized growth	1.01
Cc1cccc(NC(=S)NC2CC3C=CC2C3)c1 (configuration not stated)	normalized growth	0.979
Cc1cc(C)cc(NC(=S)N2CCN(c3ncc(C(F)(F)F)cc3Cl)CC2)c1	normalized growth	1
O=C(O)/C=C/C(=O)Nc1ccc(-n2nc(C(F)(F)F)cc2C(F)(F)F)cc1	normalized growth	1.01
COC(=O)Nc1nc2ccc(S(=O)c3ccccc3)cc2[nH]1 (configuration not stated)	normalized growth	0.994
Cc1cc(=O)n2[nH]cc(C#N)c2n1	normalized growth	1.02

###

Run description: chemical genetic growth profiling, strain panel (AID 1159580);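 further: tested at 20 µM; growth read once vehicle control cultures reached saturation at 30 °C; 1 = growth at the plate median or of vehicle wells; lower values mean less growth of the strain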
Condition label: S. cerevisiae deletion strains, growth OD, locus YBR229C, strain ROT2, stronger effect = lower value
Hit rate of the full screen: of about 5,500 compounds, about 2,000 (36%) were called active. Inconclusive results (about 18%) are left out. This is one part of the list.
Reported values of normalized growth for individual entries

Compound	normalized growth
Cc1cc(C2=CSC3=NCCN23)ccc1Cl	1.01
Cn1c(CSCC(=O)Nc2ccccc2)n[nH]c1=S	1.01
C[C@@H]1OC(O[C@H]2[C@H](O)[C@@H](O)[C@H](OC[C@H]3O[C@@H](OC(=O)[C@]45CCC(C)(C)CC4C4=CCC6[C@@]7(C)CC[C@H](OC8OC[C@H](O)[C@H](O)[C@H]8OC8O[C@@H](C)[C@H](O)[C@@H](O)[C@H]8O)[C@@](C)(CO)C7CC[C@@]6(C)[C@]4(C)CC5)[C@H](O)[C@@H](O)[C@@H]3O)O[C@@H]2CO)[C@H](O)[C@H](O)[C@H]1O (stereo partly specified)	0.987
N#C/C(NCc1cccs1)=C(\C#N)NCc1c(F)cccc1Cl	0.977
Cc1cc(O)ccc1Cl	1
CCC(C)C(NC)C(=O)O (stereo unspecified)	0.947
CC1(C)CC[C@]2(C)CC[C@]3(C)C(=CCC4[C@@]5(C)CC[C@H](O)C(C)(C)C5CC[C@]43C)C2C1 (stereo partly specified)	1.01
S=c1[nH]nc(SCCSc2n[nH]c(=S)s2)s1	1.04
Cc1nc(-c2nnc(Sc3ccc(C(F)(F)F)cc3[N+](=O)[O-])n2C)cs1	1.01
C[C@@H]1CC[C@]2(C(=O)O)CC[C@]3(C)C(=CCC4[C@@]5(C)CC[C@H](O)C(C)(C)C5CC[C@]43C)C2[C@H]1C (stereo partly specified)	1.03
C/C=C(/C)C(=O)O[C@@H]1[C@H](OC(C)=O)[C@@]2(CO)C(CC1(C)C)C1=CCC3[C@@]4(C)CC[C@H](O[C@@H]5O[C@H](C(=O)O)[C@@H](O[C@@H]6O[C@H](CO)[C@@H](O)[C@H](O)[C@H]6O)[C@H](O)[C@H]5O[C@@H]5O[C@H](CO)[C@@H](O)[C@H](O)[C@H]5O)[C@](C)(CO)C4CC[C@@]3(C)[C@]1(C)C[C@H]2O (stereo partly specified)	1.01

###

Run description: chemical genetic growth profiling, strain panel (AID 1159580);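 further: tested at 20 µM; growth read once vehicle control cultures reached saturation at 30 °C; 1 = growth at the plate median or of vehicle wells; lower values mean less growth of the strain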
Condition label: S. cerevisiae deletion strains, growth OD, locus YHR030C, strain SLT2, stronger effect = lower value
About 2,000 (36%) of roughly 5,500 compounds were called active. Roughly 18% stayed inconclusive and do not appear here. The list shows a part of the results.

Compound	normalized growth
N#C/C(NCc1cccs1)=C(\C#N)NCc1c(F)cccc1Cl	0.919
O=c1oc2cc(O)ccc2s1	0.983
C[N+](C)(C)C[C@H](O)CC(=O)[O-]	0.972
CCOP(=S)(OCC)Oc1nc(Cl)c(Cl)cc1Cl	1.01
CCc1cc2c(cc1C(=O)CC1(O)C(=O)Nc3ccc(Br)cc31)C(C)(C)CCC2(C)C (stereo not given)	1.02
Cc1noc(C)c1NC(N)=O	1.04
Cc1csc(NC(=O)Nc2ccc(C(F)(F)F)cc2)c1	0.891
CC1(C)CC[C@]2(C)CC[C@]3(C)C(=CCC4[C@@]5(C)CC[C@H](O)C(C)(C)C5CC[C@]43C)C2C1 (stereo not given in full)	1.07
N#CC(C#N)=CNc1cccc(N)n1	1.05
N=C(N)c1ccc(OCCCCCOc2ccc(C(=N)N)cc2)cc1	0.974
C=C1SC(=Nc2cccc(OC)c2)N(C(=O)C(c2ccccc2)C2CCCC2)C1(C)C (stereo not given)	1.03
CC1(C)CC[C@@]2(C(=O)O)C(C1)C1=CCC3[C@@]4(C)CC[C@H](O)C(C)(C)C4CC[C@@]3(C)[C@]1(C)C[C@@H]2O (stereo not given in full)	1.04
NC12CC3CC(CC(C3)C1)C2	1
OC(CCN1CCCCC1)(c1ccccc1)C1CC2C=CC1C2 (stereo not given)	0.977
Clc1ccc2c(c1)c1ccccc1n2CN1CCOCC1	0.679
O=C(CNC(=O)c1ccc(Cl)cc1)NO	1.02
O=C(Nc1ccc(C(=O)O)c(O)c1)c1ccccc1	0.937
CCCNCCCCCC[N+](C)(C)C	1.02
C#C[C@@H]1CC2C3CCC4=C[C@@H](OC(C)=O)CCC4C3CC[C@]2(C)[C@H]1OC(C)=O (stereo not given in full)	1
O=P(O)(O)C(O)(Cc1cccnc1)P(=O)(O)O	0.969
CC(C)(C)OC(=O)C(C)(C)S(=O)(=O)c1ccc(Cl)cc1	0.955
S=C(Nc1ccc(Cl)cc1)SCc1c(Cl)cccc1Cl	0.996
CC(OCc1ccccc1)C(NC(=O)OC(C)(C)C)C(N)=O (stereo not given)	0.903
CCOP(=S)(OCC)Oc1cc(C)nc(C(C)C)n1	0.988
CC(C)(C)c1ccc(-c2n[nH]c(=S)n2-c2cccc(C(F)(F)F)c2)cc1	0.966
O=C(O)CSCC(=O)NC1CCN(Cc2ccccc2)CC1	1.08
Cc1c(S(=O)(=O)c2ccc(Cl)cc2)cnc2cc(C(C)(C)C)nn12	1.07
O=S(=O)(NC(=S)Nc1ccc(Cl)c(Cl)c1)c1ccccc1	1.1
CC12CCC3C4CCC(=O)C=C4CCC3C1CCC2=O (stereo not given)	0.898
COc1ccccc1C1OC(=O)CC1C(=O)O (stereo not given)	0.963
O=C1ON=C(CSc2ccccc2)/C1=C/c1ccc(Cl)cc1	0.0755
Cc1csc(NC(=O)Nc2ccc(C(F)(F)F)cc2)c1Cl	0.858
CCCCCc1ccc(C(=O)O/N=C\c2c(Cl)cccc2Cl)cc1	1.01
CCOC(=O)NC(=O)c1cn(Cc2cccs2)c(=O)[nH]c1=O	1
C[C@@H]1CC[C@]2(C(=O)O)CC[C@]3(C)C(=CCC4[C@@]5(C)CC[C@H](O)C(C)(C)C5CC[C@]43C)C2[C@H]1C (stereo not given in full)	1.02
COc1cc(C2OC(c3cc(C)ccc3[N+](=O)[O-])=NN2C(C)=O)cc(OC)c1OC (stereo not given)	0.948
Cn1c(CSCC(=O)Nc2ccccc2)n[nH]c1=S	1.09
S=C(NCc1cccnc1)Nc1ccccc1Cl	0.538
COc1cccc(OC)c1OCCNCC1COc2ccccc2O1 (stereo not given)	1.01
CNC(=O)O/N=C\C(C)(C)SC	0.984
O=C(NC1CCN(Cc2ccc(Cl)c(Cl)c2)CC1)c1ccccc1	0.641
Cc1cccc(NC(=S)NCc2ccncc2)c1	0.857
C#C[C@]1(OC(C)=O)CCC2C3CCC4=C/C(=N\O)CCC4C3CC[C@@]21CC (stereo not given in full)	0.671
OC1CCN(c2cc(C(F)(F)F)nc3cc(Cl)cc(Cl)c23)CC1	0.793
Cc1csc2ccc(Cl)cc12	1.07

###

Reported values of normalized growth for individual entries
Run description: chemical genetic growth profiling, strain panel (AID 1159580);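 further: tested at 20 µM; growth read once vehicle control cultures reached saturation at 30 °C; 1 = growth at the plate median or of vehicle wells; lower values mean less growth of the strain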
Condition label: S. cerevisiae deletion strains, growth OD, locus YEL037C, strain rad23, stronger effect = lower value
Out of some 5,500 compounds screened, about 2,000 (36%) were called active. Not shown: some 18% with an inconclusive outcome. The list shows a part of the results.

Molecule	normalized growth
CC(=O)O[C@@H]1CC[C@@]2(C)C(CC[C@]3(C)C2CC=C2C4CC(C)(C)CC[C@]4(C(=O)O)CC[C@]23C)C1(C)C (stereo not given in full)	0.99
O=C1C(O)=C(O)C(=O)C(O)=C1O	0.998
COc1ccc2c(c1)c(CC(=O)OCC(=O)O)c(C)n2C(=O)c1ccc(Cl)cc1	1
C/C=C(/C)C(=O)OC1CCC2(C)C3CCC4C5(O)CC(O)C6(O)C(CN7CC(C)CCC7C6(C)O)C5(O)CC42OC13O (stereo not given)	0.984
CC1(C)CC[C@]2(C(=O)O)CC[C@]3(C)C(=CCC4[C@@]5(C)CC[C@H](O)[C@@](C)(CO)C5CC[C@]43C)C2C1 (stereo not given in full)	1.02
